Cited source for all entries: ChEMBL document CHEMBL5500328

system: LoVo; assay: Cytotoxicity against human LoVo cells; type: functional, cell-based
pIC50: −log10 of the molar value.
Quantity measured: pIC50

>>> reported_measurement("COc1ccc(C[C@H]2NC(=O)/C=C/C[C@@H]([C@H](C)[C@H]3O[C@H]3c3ccccc3)OC(=O)[C@H](CC(C)C)OC(=O)[C@H](C)CNC2=O)cc1Cl")
11.12

---

target: Tubulin; assay: Binding affinity to tubulin (unknown origin) assessed as dissociation constant by SPR analysis
pKd: −log10 of the molar value.
Quantity measured: pKd

>>> reported_measurement("COc1ccc(C[C@H]2NC(=O)/C=C/C[C@@H]([C@H](C)[C@H]3O[C@H]3c3ccccc3)OC(=O)[C@H](CC(C)C)OC(=O)C(C)(C)CNC2=O)cc1Cl")
7.33

---

test system: KB 3-1; assay: Cytotoxicity against human KB-3-1 cells assessed as inhibition of cell growth; assay type: functional, cell-based
pIC50: −log10 of the molar value.
Quantity measured: pIC50

>>> reported_measurement("COc1ccc(C[C@H]2NC(=O)/C=C/C[C@@H]([C@H](C)[C@H]3O[C@H]3c3ccccc3)OC(=O)[C@H](CC(C)C)OC(=O)C(C)(C)CNC2=O)cc1Cl")
10.82
